The entries below are paired with their reported log10(IC50).
biological target: HCN2 (Homo sapiens (Human)); test: HCN2 current assay using PatchXpress 7000A; assay type: cell-based; settings: PatchXpress protocol; read-out: PX HCN2 IC50
Sequence (Q9UL51 whole entry): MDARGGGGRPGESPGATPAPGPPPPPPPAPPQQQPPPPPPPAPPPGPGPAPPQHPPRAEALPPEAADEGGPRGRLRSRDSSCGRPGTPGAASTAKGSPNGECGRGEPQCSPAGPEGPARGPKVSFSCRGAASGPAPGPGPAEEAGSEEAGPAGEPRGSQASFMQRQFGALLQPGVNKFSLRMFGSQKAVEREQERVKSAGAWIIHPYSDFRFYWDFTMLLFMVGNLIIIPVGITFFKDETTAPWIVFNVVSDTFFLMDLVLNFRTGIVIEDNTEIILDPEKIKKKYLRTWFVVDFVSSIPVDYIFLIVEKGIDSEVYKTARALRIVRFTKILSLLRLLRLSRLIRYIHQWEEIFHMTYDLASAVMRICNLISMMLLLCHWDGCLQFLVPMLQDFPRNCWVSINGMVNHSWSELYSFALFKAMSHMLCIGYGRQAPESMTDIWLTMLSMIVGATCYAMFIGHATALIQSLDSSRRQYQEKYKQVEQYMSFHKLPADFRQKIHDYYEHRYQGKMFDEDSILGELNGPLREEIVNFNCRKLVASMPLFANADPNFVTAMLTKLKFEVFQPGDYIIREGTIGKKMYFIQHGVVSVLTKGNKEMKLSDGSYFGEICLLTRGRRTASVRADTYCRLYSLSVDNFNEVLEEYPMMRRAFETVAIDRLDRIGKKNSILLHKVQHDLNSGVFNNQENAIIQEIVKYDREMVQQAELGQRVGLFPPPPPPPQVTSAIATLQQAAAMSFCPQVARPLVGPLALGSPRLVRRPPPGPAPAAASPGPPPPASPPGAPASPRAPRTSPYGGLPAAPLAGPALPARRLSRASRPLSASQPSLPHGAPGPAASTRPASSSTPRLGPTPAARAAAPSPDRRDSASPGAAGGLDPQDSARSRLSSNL
Structures can show the parent of a compound that is named as a salt.
Log scale reminder: IC50 in nM, then log10 taken.

Example entries and their recorded answers appear below.
[[record]]
compound = "Cc1ccc2c(-c3ccccc3[C@@H](N)Cc3ccccn3)noc2c1"
result = 3.23

[[record]]
compound = "N#Cc1ccc(F)c(C[C@H](N)c2ccccc2-c2noc3ccccc23)n1 [Example 71, formate]"
result = 2.70

[[record]]
compound = "Cc1cccc(C[C@H](N)c2ccccc2-c2nn(C)c3ccccc23)n1 [Example 61, hydrochloride]"
result = 3.54

[[record]]
compound = "Cc1cccc(C[C@H](N)c2c(F)cccc2-c2noc3ccccc23)n1 [Example 112, hydrochloride]"
result = 3.30

[[record]]
compound = "Cc1ccc(F)c(C[C@H](N)c2ccccc2-c2noc3ccccc23)n1 [Example 73, hydrochloride]"
result = 2.60


Problem: Entry Cc1cccc(C[C@H](N)c2ccccc2-c2noc3ccccc23)n1 [Example 114, hydrochloride] has what log10(IC50)?
Solution: 2.79

Problem: Entry CCc1ccc(C)c(C[C@H](N)c2ccccc2-c2noc3ccccc23)n1 [Example 9, hydrochloride] has what log10(IC50)?
Solution: 2.41

Problem: Entry N[C@@H](Cc1ccccn1)c1ccccc1-c1noc2cc(CCO)ccc12 has what log10(IC50)?
Solution: 4.19
